Source: PubChem BioAssay

# testedSystem: Nuclear receptor coactivator 2 (Homo sapiens) (UniProt Q15596)
# Sequence (Q15596 whole entry, looked up): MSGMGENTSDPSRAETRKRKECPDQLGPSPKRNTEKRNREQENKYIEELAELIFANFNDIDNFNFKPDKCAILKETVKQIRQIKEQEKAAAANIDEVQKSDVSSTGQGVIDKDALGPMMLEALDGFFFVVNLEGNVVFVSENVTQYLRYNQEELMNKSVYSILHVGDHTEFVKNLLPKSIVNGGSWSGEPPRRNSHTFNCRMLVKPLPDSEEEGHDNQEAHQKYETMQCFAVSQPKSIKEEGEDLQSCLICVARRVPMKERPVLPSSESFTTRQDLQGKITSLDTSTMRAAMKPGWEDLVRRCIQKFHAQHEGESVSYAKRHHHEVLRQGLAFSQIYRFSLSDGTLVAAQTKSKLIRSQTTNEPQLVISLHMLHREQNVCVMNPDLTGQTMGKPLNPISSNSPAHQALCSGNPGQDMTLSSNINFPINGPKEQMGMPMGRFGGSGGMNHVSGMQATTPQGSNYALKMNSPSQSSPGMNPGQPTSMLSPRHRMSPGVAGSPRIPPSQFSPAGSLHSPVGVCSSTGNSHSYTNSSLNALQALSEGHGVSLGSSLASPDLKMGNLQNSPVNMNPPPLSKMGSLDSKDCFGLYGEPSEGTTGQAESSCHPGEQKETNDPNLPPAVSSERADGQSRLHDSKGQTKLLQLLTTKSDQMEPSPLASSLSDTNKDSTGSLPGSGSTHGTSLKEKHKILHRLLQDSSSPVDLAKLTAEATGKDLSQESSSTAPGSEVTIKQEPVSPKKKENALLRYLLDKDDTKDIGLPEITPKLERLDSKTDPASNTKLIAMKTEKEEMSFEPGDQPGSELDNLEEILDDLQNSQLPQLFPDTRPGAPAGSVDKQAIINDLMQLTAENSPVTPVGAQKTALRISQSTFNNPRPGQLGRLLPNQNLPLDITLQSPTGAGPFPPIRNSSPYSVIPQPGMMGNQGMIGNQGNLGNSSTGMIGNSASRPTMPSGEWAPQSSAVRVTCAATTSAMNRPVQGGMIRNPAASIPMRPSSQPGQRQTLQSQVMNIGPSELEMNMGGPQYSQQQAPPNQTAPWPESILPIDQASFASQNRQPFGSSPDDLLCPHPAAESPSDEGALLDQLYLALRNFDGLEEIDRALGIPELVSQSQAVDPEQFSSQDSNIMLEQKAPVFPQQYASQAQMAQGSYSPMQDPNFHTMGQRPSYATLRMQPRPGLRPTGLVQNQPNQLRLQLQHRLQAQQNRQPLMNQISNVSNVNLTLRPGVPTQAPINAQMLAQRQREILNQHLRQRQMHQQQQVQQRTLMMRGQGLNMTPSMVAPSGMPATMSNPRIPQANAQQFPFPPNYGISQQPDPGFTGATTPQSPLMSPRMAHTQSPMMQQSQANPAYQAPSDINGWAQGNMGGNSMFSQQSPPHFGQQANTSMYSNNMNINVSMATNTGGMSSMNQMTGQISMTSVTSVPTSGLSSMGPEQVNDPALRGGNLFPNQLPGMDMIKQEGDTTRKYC
# procedureSummary: SRC2 coactivator transcriptional activity inhibitors, confirmation, cell-based, luminescence, HEK293, triplicate (AID 652008);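 further: 0% = DMSO-treated cells and 100% = Gossypol at 36 µM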
# cond: HEK293 GAL4-SRC2 luciferase reporter, at 8.9 µM, stronger effect = higher value
readoutType: inhibition (%)
Return type: number; implicit unit %.

Reference set, count: 5
COc1ccc(CN2C(=O)C(CC(=O)NCCN3CCOCC3)CC(C(=O)N(C(C)C)C(C)C)=C2C)cc1 (stereo unspecified) = -36.3
Nc1ccc2c(c1)OC1(CCCC1)O2 = 45.4
CC(C)C(=O)NC(c1ccco1)c1ccc2cccnc2c1O (stereo unspecified) = 8.96
CC(C)N(Cc1ccccc1)C(=S)NCc1ccccc1 = -6.45
CC(C)CCOc1cccc(OCC(=O)Nc2ccncc2)c1 = 38

In: GET /values?readout=inhibition&item= `CC(C)(C)c1ccc(-c2noc(CCC(=O)Nc3cccnc3)n2)cc1`
Out: 80.8

* * *

# procedureSummary: StAR promoter reporter inhibitors, counter-screen for LRH-1 inverse agonist project, cell-based, luminescence, high throughput (AID 651611)
# cond: StAR promoter luciferase reporter counterscreen, at 3.6 µM
Activity calls are given as the source filed them. No stated cut-off is given here; in the data, active means inhibition above about 28%; inactive means the rest.
Could you please pick one outcome from this set? y for active, n for inactive

Answered examples (3):
Clc1ccc2c(c1)-c1ccccc1C1=NCCN12 = y
O=C(Nc1nccs1)c1ccc(S(=O)(=O)NCC2CCCCC2)cc1 = n
Cc1nnc(SCC(=O)Nc2sc3c(c2C(N)=O)CCCC3)[nH]c1=O = n

In: Each compound tested received a call. Report the one for CC(O)(c1cccc(F)c1)c1nc(-c2ccc(S(C)(=O)=O)cc2)cs1 (stereo unspecified) .
Out: n

In: Each compound tested received a call. Report the one for CCC(=O)NC(c1ccc(Cl)cc1Cl)c1ccc2cccnc2c1O (stereo unspecified) .
Out: y

In: Each compound tested received a call. Report the one for `ClCc1ncc(-c2ccc(Cl)cc2)o1` .
Out: n

In: Each compound tested received a call. Report the one for Cc1nnsc1S(=O)c1ccc(Cl)c(Cl)c1 (stereo unspecified) .
Out: n

In: Each compound tested received a call. Report the one for `COc1cccc(/C=N/NC(=O)c2c(-c3ccccc3)noc2C)c1O` .
Out: y

* * *

# testedSystem: Steroidogenic factor 1 (Homo sapiens)
# procedureSummary: SF1 (NR5A1) inverse agonists, counter-screen for LRH-1 inverse agonist project, cell-based, luminescence, high throughput (AID 651614);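 further: cells cotransfected with StAR promoter reporter and SF1 expression vector; 0% = vehicle on cells with receptor and 100% = vehicle on cells lacking receptor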
# cond: cell-based SF1 luciferase reporter, at 3.6 µM, stronger effect = higher value
readoutType: inhibition (%)
Return type: number; implicit unit %.

NC(=S)N/N=C/c1ccc(-n2nncc2-c2ccc(Cl)cc2)cc1 = 56.4
O=C(Nc1ccc(Br)cn1)C1CCN(S(=O)(=O)c2cccs2)CC1 = 50.2
Cc1ccc(C(=O)C[n+]2cc(-c3ccc(C)cc3)n3c2CCCCC3)cc1 = 75.7
N#Cc1c(N)n(C2OC(CO)C(O)C2O)c2ncnc(N)c12 (stereo not given) = 95.6

In: GET /values?readout=inhibition&item= `COC(=O)c1cn(NC(=O)c2cc([N+](=O)[O-])ccc2F)c(=O)c2ccccc12`
Out: 92.9

* * *

# testedSystem: Nuclear receptor coactivator 1 (Homo sapiens)
# procedureSummary: SRC1 coactivator transcriptional activity inhibitors, confirmation, cell-based, luminescence, quadruplicate (AID 588820);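 further: 0% = DMSO wells and 100% = gossypol 36 µM treated wells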
# cond: HEK293 GAL4-SRC1 luciferase reporter, at 3.6 µM, stronger effect = higher value
// Not satisfied strictly below 30% in inhibition; Satisfied otherwise

Cc1ccc(-n2c(O)c(C=Nc3cc(C)on3)c3ccccc3c2=O)c(C)c1 = Satisfied
Cc1ccc(S(=O)(=O)N2CCN(S(C)(=O)=O)CC2)cc1 = Not satisfied
CN(Cc1ccccc1)C(=O)c1ccc(NC(=O)C2CCCN(C(=O)OC(C)(C)C)C2)cc1 (stereo unspecified) = Not satisfied

In: Entry `CNc1ccc2ncc(-c3ccc(OC)c(OC)c3)n2n1` : is its inhibition no less than 30%?
Out: Satisfied

In: Entry `COCCn1c(C)cc(C2=NNC(=Nc3ccccc3F)SC2)c1C` : is its inhibition no less than 30%?
Out: Satisfied

* * *

# testedSystem: Nuclear receptor coactivator 1 (Homo sapiens)
# procedureSummary: SRC1 coactivator transcriptional activity inhibitors, confirmation, cell-based, luminescence, quadruplicate (AID 588820);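 further: 0% = DMSO wells and 100% = gossypol 36 µM treated wells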
# cond: HEK293 GAL4-SRC1 luciferase reporter, at 3.6 µM
The source made the active and inactive calls.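 How the source made its calls: active means mean inhibition above 46.68%, the untreated control wells mean plus 3 SD; inactive means the rest.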
Could you please pick one outcome from this set? active, inactive

CC(=O)c1c(C)n(-c2ccccc2)c2ccc(O)cc12 = inactive
Cc1ccc(S(=O)(=O)NNC2=NS(=O)(=O)c3ccccc32)c(C)c1 = inactive
COc1ccc(S(=O)(=O)/N=C2\C=C(Nc3ccc(O)cc3)C(=O)c3ccccc32)cc1 = active

In: Each molecule tested received a call. Report the one for `CCOC(=O)C(=Cc1cc(=O)c(OC)co1)C(=O)OCC` .
Out: inactive

In: Each molecule tested received a call. Report the one for `CCN(CC)c1ccc2cc(NC(=O)CCC(=O)O)c(=O)oc2c1` .
Out: inactive

In: Each molecule tested received a call. Report the one for `CN(C)c1ccc(/C=C/c2nc3ccccc3s2)cc1` .
Out: inactive

In: Each molecule tested received a call. Report the one for `CC(C)(C)C(=O)Nc1ccc(NC(=O)c2ccco2)nc1` .
Out: inactive

* * *

Catalogue of inhibition readings, one per entry.
# Tested on: transactivating tegument protein VP16 (Human herpesvirus 1), Gal4-VP16 luciferase reporter
# procedureSummary: VP16 transactivation inhibitors, counter-screen for SRC3 inhibitor project, cell-based, luminescence, high throughput (AID 588794)
# cond: mammalian cells, VP16-driven luciferase reporter luminescence; at 3.6 µM; stronger effect = higher value
Return type: number; implicit unit %.

Reference set, count: 10
Cc1ccc(N(Cc2cc(=O)[nH]c3ccccc23)C(=O)CCl)c(C)c1 = 34.3
S=C(NCCCCN(Cc1ccc(Cl)cc1)c1ccc(Br)cn1)NCCCc1cnc[nH]1 = 72.5
NC(=S)N/N=C1\CCSc2ccc(Cl)cc21 = 22.9
CCOC(=O)c1c(C)[nH]c(C(=O)N/N=C\c2ccccc2O)c1C = 12.8
NCC(=O)Nc1ccc(Cl)cc1C(=O)c1ccc[nH]1 = 45.8
Cc1nn(C)c(C)c1CN(C)C(=O)c1cnn2c1NC(c1ccccc1)CC2C(F)(F)F (stereo unspecified) = 3.17
CC(C)COc1ccc(C(=O)Nc2sc3c(c2C(=O)O)CC(C)(C)OC3)cc1 = 68.5
Cc1ccc(CNC(=O)CCc2ccc(S(=O)(=O)NC3CCCCC3)cc2)cc1 = 0.04
Cc1nnnn1/C(=C\c1ccccc1)C(=O)OCC(=O)N1CC2(C)CC1CC(C)(C)C2 (stereo unspecified) = 44
O=C1OCCC1Sc1nnc(-c2ccc(Cl)cc2Cl)o1 (stereo unspecified) = 1.16

In: GET /values?readout=inhibition&item= `COc1ccc([N+](=O)[O-])cc1NC(=O)Nc1cccc(Cl)c1`
Out: 15.4

In: GET /values?readout=inhibition&item= `CCn1c(C)cc(C(=O)COC(=O)c2ccccc2[N+](=O)[O-])c1C`
Out: 90.4

In: GET /values?readout=inhibition&item= `COc1cccc(C(=O)Oc2c(Br)cc(Br)cc2/C=N/NC(=O)c2cc(C)[nH]n2)c1`
Out: 18.3

In: GET /values?readout=inhibition&item= N#CC(c1ccc(Cl)cc1)c1ccc2c(C(F)(F)F)cc(C(F)(F)F)nc2n1 (stereo unspecified)
Out: 85.7

In: GET /values?readout=inhibition&item= `CC(C)n1cnc2c(NCc3ccccc3)cc(N[C@H](C)CO)cc21`
Out: 87.3

In: GET /values?readout=inhibition&item= `O=C(Nc1cccc(C(F)(F)F)c1)Nc1nnc([C@@H]2C[C@H](O)[C@@H](CO)O2)s1`
Out: 21.6

In: GET /values?readout=inhibition&item= `COc1ccccc1NS(=O)(=O)c1cc(NC(=O)c2ccc(Cl)nc2)ccc1Cl`
Out: 30.7

In: GET /values?readout=inhibition&item= CCC(=O)NC(c1ccc(Cl)cc1Cl)c1ccc2cccnc2c1O (stereo unspecified)
Out: 34.1

* * *

Catalogue of inhibition readings, one per entry.
# System: transactivating tegument protein VP16 (Human herpesvirus 1), Gal4-VP16 luciferase reporter
# procedureSummary: VP16 transactivation inhibitors, counter-screen for SRC3 inhibitor project, cell-based, luminescence, high throughput (AID 588794)
# cond: mammalian cells, VP16-driven luciferase reporter luminescence; at 3.6 µM; stronger effect = higher value
Return type: number; implicit unit %.

Reference set, count: 5
COc1cccc(/C=N/NC(=O)c2ccc(=O)n(C)c2)c1O = 9.91
CC(C)CCNC(=O)C(c1ccncc1)N(Cc1cccs1)C(=O)Cn1nnc(-c2ccc(F)cc2)n1 (stereo not given) = 54.1
Cc1ccc(-c2c[n+](Cc3ccc(Cl)c(Cl)c3)c3n2CCC3)cc1 = 25.3
O=C(Cc1ccc(Cl)cc1)c1c[nH]c(C(=O)NCc2cccnc2)c1 = 56
CCNc1nc(NC(C)(C)C)nc(SC(C(C)=O)C(C)=O)n1 = 32

In: Record `COc1ccc(-c2csc(NC(=O)c3ccccc3NS(=O)(=O)c3ccc(F)c(F)c3)n2)cc1` : what is its inhibition with transactivating tegument protein VP16 (Human herpesvirus 1), Gal4-VP16 luciferase reporter?
Out: 71.4

In: Record `Cc1cc(C)c2nc3nc(C)cc(C)c3c(N)c2c1` : what is its inhibition with transactivating tegument protein VP16 (Human herpesvirus 1), Gal4-VP16 luciferase reporter?
Out: 57.9

In: Record `Nc1[nH]nc2nc(-c3ccccc3)[nH]c(=O)c12` : what is its inhibition with transactivating tegument protein VP16 (Human herpesvirus 1), Gal4-VP16 luciferase reporter?
Out: -4.28

In: Record `Cc1ccc(C(=O)OCC(=O)Nc2sccc2C(N)=O)cc1NC(=O)c1ccco1` : what is its inhibition with transactivating tegument protein VP16 (Human herpesvirus 1), Gal4-VP16 luciferase reporter?
Out: 11.5

In: Record `O=C(COc1ccc(Cl)cc1Cl)Nc1ccccn1` : what is its inhibition with transactivating tegument protein VP16 (Human herpesvirus 1), Gal4-VP16 luciferase reporter?
Out: 53.6

In: Record `Cc1cc(Br)c(OCc2ccc(C(=O)N/N=C/c3ccc[nH]3)cc2)c(Br)c1` : what is its inhibition with transactivating tegument protein VP16 (Human herpesvirus 1), Gal4-VP16 luciferase reporter?
Out: 71.7

In: Record Cc1c(/C(O)=C2/C(=O)C(=O)N(CCN3CCOCC3)C2c2ccco2)cnn1-c1ccccc1 (stereo not given) : what is its inhibition with transactivating tegument protein VP16 (Human herpesvirus 1), Gal4-VP16 luciferase reporter?
Out: 5.75
